A collection of binders and their measured Kd
# target_entity: T1, EDIII-DV3 (Dengue virus serotype 3 (DV3), UniProt Q6YMS3 579-671)
# T1 construct: also called EDIII of DV3; EDIII-DVIII

>  <binder>
VH_G27P (antibody, V domains shown, also called 4E5-G27P; copies: 2 + 2) VH: VKLLEQSGAELVKPGASVRLSCTASPFNIKDTYMSWVKQRPEQGLEWIGRIDPENGDTKYDPKFQGKATITADTSSNTAYLHLSSLTSGDTAVYYCSRGWEGFAYWGQGTLVTVSA VL: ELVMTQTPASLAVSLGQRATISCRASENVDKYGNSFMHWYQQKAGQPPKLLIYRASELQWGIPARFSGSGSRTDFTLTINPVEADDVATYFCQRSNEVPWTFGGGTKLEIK

>  <measurement_units>
nM

>  <Kd>
33.1

$$$$
>  <binder>
VH_A25_del (antibody, V domains shown, also called 4E5-del-25; copies: 2 + 2) VH: VKLLEQSGAELVKPGASVRLSCTSGFNIKDTYMSWVKQRPEQGLEWIGRIDPENGDTKYDPKFQGKATITADTSSNTAYLHLSSLTSGDTAVYYCSRGWEGFAYWGQGTLVTVSA VL: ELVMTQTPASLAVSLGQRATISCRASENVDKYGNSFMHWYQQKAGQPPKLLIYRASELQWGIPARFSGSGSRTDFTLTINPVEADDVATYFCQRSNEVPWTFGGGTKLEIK

>  <measurement_units>
nM

>  <Kd>
19.8

$$$$
>  <binder>
VH_G27A (antibody, V domains shown) VH: VKLLEQSGAELVKPGASVRLSCTASAFNIKDTYMSWVKQRPEQGLEWIGRIDPENGDTKYDPKFQGKATITADTSSNTAYLHLSSLTSGDTAVYYCSRGWEGFAYWGQGTLVTVSA VL: ELVMTQTPASLAVSLGQRATISCRASENVDKYGNSFMHWYQQKAGQPPKLLIYRASELQWGIPARFSGSGSRTDFTLTINPVEADDVATYFCQRSNEVPWTFGGGTKLEIKR

>  <measurement_units>
nM

>  <Kd>
20.6

$$$$
>  <binder>
VH_G27_del (antibody, V domains shown) VH: VKLLEQSGAELVKPGASVRLSCTASFNIKDTYMSWVKQRPEQGLEWIGRIDPENGDTKYDPKFQGKATITADTSSNTAYLHLSSLTSGDTAVYYCSRGWEGFAYWGQGTLVTVSA VL: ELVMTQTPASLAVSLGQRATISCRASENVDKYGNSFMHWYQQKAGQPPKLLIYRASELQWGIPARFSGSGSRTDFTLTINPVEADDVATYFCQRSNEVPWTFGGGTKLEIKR

>  <measurement_units>
nM

>  <Kd>
9.05

$$$$
